target.desc: T1, 人源OX40的胞外区与小鼠Fc融合蛋白(OX40-ECD-mFc) (human, UniProt P43489 29-214)
T1 construct: extracellular domain; also called OX40-mFc; not shown: mouse Fc
T1 sequence (looked up): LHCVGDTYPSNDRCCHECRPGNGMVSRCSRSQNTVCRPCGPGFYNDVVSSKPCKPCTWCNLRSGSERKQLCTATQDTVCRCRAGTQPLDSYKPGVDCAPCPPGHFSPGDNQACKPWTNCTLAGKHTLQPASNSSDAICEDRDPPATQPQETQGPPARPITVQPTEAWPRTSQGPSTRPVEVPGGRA
protocol.details: ELISA on OX40-mFc (Fig. 7)

binder | binding result
抗人OX40人源化抗体3C9 (antibody, IgG1, V domains shown, expressed in 293 cells; also called hu3C9; hu3C9-hIgG1) VH: QVQLVQSGAEVKKPGASVKVSCKASGYTFTSYIMHWVRQAPGQGLEWIGYINPYNGGSRYNDKFKVRATLTSDKSISTAYMELSRLRSDDTAVYYCARGDYDDGAWFGYWGQGTTVTVSS VL: DIVMTQSPLSLPVTPGEPASISCKSSQSLLHSNGITYLFWYLQKPGQSPQLLIYRMSNRASGVPDRFSSSGSGTDFTLKISRVEAEDVGVYYCGQNLELPVTFGQGTKLEIK | binds
抗人OX40人源化抗体1A2 (antibody, V domains shown, expressed in 293 cells; also called hu1A2; 1A2人源化抗体) VH: QVTLKESGPTLVKPTQTLTLTCTFSGFSLATSGVAVGWIRQPPGKALEWLAHIWWDDVKRYNPSLQGRLTITKDTSKNQVVLTMTNMDPVDTATYYCARMDWDGLAYWGQGTLVTVSS VL: EIVLTQSPATLSLSPGERATLSCSVSSSISSSNLHWYQQKPGQAPRPWIYGTSNLATGIPARFSGSGSGTDYTLTISSLEPEDFAVYYCQQYSSYPFTFGGGTKVEIK | binds
抗人OX40人源化抗体15A7 (antibody, IgG1, V domains shown, expressed in 293 cells; also called hu15A7; hu15A7-hIgG1) VH: QVQLQESGPGLVKPSETLSLTCTVSGYSITSDYWNWIRQPPGKGLEYMGYISYSGSTSYNPSLKSRITISRDTSKNQYSLKLSSVTAADTAVYYCARGGYYYGSSYPYYFDYWGQGTLVTVSS VL: DIQMTQSPSTLSASVGDRVTITCKASQNVGTAVAWYQQKPGKAPKLLIYSPSNRYTGVPSRFSGSGSGTEFTLTISSLQPDDFATYYCQQYSSYRTFGGGTKVEIK | binds
抗人OX40人源化抗体3F5 (antibody, IgG1, V domains shown, expressed in 293 cells; also called hu3F5; hu3F5-hIgG1) VH: EVQLVESGGGLVQPGGSLRLSCAASGFTFGSYAMSWVRQAPGKGLEWVAEISSGGIYTYYADIVTGRFTTSRDNAKNSLYLQMNSLRAEDTAVYYCVRDFDYRFAYWGQGTLVTVSS VL: DIQMTQSPSSLSASVGDRVTITCKSSQEISGYLAWLQQKPGKAPKRLIYAASSLDVGVPSRFSGSRSGSEYTLTISSLQPEDFATYYCFQYASYPYTFGQGTKLEIK | binds
